Tested on: up to 32 different microorganisms
Assay Protocol: in vitro antibacterial activity (MIC), agar dilution on Brain Heart Infusion (BHI) agar with Steers replicator
Assay type: cell-based
Measurement Setup: organism code VV; unit assumed
Description: Representative compounds of the present invention were assayed in vitro for antibacterial activity as follows: Twelve petri dishes containing successive aqueous dilutions of the test compound mixed with 10 mL of sterilized Brain Heart Infusion (BHI) agar (Difco 0148-01-5) were prepared. Each plate was inoculated with 1:100 (or 1:10 for slow-growing strains, such as Micrococcus and Streptococcus) dilutions of up to 32 different microorganisms, using a Steers replicator block. […]
One threshold, 0.4 µg/mL, splits the recorded MIC values: lower ones are class 1, equal or higher ones are class 0.

Does CC[C@H]1OC(=O)[C@H](C)C(=O)[C@H](C)[C@@H](O[C@@H]2O[C@H](C)C[C@H](N(C)C)[C@H]2O)[C@@](C)(OCC#Cc2ccc3ccccc3c2)C[C@@H](C)C(=O)[C@H](C)[C@H]2NC(=O)O[C@@]21C [Example 251] have MIC strictly under 0.4 µg/mL? class 1

Report whether reported MIC is lower than 0.4 µg/mL (strictly) for CCC1OC(=O)C(C)C(=O)C(C)C(OC2OC(C)CC(N(C)C)C2O)C(C)(OCC=Cc2ccc(-n3cccc3)cc2)CC(C)C(=O)C(C)C2NC(=O)OC12C (stereo not drawn) [Example 282] class 1

hey, is MIC for CCC1OC(=O)C(C)C(=O)C(C)C(OC2OC(C)CC(N(C)C)C2O)C(C)(OCC(O)c2ccccc2)CC(C)C(=O)C(C)C2NC(=O)OC12C (single isomer, unassigned) [Example 261B] lower than 0.4 µg/mL or not? class 0

Determine if CCC1OC(=O)C(C)C(=O)C(C)C(OC2OC(C)CC(N(C)C)C2O)C(C)(OCC2CC2c2cnc3ccccc3c2)CC(C)C(=O)C(C)C2NC(=O)OC12C (stereo not drawn) [Example 243] shows MIC strictly lower than 0.4 µg/mL. class 1

API: query returns whether the molecule falls strictly under 0.4 µg/mL in MIC. Query: CC[C@H]1OC(=O)[C@H](C)C(=O)[C@H](C)[C@@H](O[C@@H]2O[C@H](C)C[C@H](N(C)C)[C@H]2O)[C@@](C)(OCC#Cc2ccc3cc(OC)ccc3c2)C[C@@H](C)C(=O)[C@H](C)[C@H]2NC(=O)O[C@@]21C [Example 252] class 1

Consider CCC1OC(=O)C(C)C(=O)C(C)C(OC2OC(C)CC(N(C)C)C2O)C(C)(OCC=Cc2ccc3cc(O)c(C(=O)Nc4ccccc4OC)cc3c2)CC(C)C(=O)C(C)C2NC(=O)OC12C (stereo not drawn) [Example 206] . Does its MIC lie strictly below 0.4 µg/mL? class 0

Please let me know if CC[C@H]1OC(=O)[C@H](C)C(=O)[C@H](C)[C@@H](O[C@@H]2O[C@H](C)C[C@H](N(C)C)[C@H]2O)[C@@](C)(OCC#Cc2ccc(C(=O)Nc3ccccn3)o2)C[C@@H](C)C(=O)[C@H](C)[C@H]2NC(=O)O[C@@]21C [Example 256] shows MIC below 0.4 µg/mL. class 1
